Assign pKi to each entry below.
Biological target: Aurora-2 (Aurora A) (Homo sapiens)
Sequence (O14965 whole entry): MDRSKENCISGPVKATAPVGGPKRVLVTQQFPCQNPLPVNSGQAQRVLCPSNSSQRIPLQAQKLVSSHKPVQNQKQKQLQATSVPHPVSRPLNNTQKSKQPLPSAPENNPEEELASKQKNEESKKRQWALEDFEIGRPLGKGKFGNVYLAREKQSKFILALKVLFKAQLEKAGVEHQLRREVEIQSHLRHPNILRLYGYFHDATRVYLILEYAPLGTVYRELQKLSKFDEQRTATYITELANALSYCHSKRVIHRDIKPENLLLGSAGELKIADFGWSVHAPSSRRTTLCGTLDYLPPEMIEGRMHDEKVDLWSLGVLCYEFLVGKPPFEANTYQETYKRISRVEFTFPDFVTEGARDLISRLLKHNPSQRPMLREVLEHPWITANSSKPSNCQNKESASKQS
Assay: Aurora-2 (Aurora A) inhibition assay, coupled enzyme
Type: biochemical
Conditions: 400 μM ATP, 40 nM Aurora-2; read-out: Aurora A Ki
Formally, pKi is defined as -log10 of the concentration c, with c in mol/L.

Suppose we examine the compound Cc1cc(Nc2cc(N3CC(O)(C4CC4)C3)nc(Sc3ccc(NC(=O)C4CC4(F)F)cc3)n2)[nH]n1 (stereo not shown) ; what pKi value has been reported? 9.46

Suppose we examine the compound "Cc1cc(Nc2cc(N3CC(O)(C4CC4)C3)nc(Sc3ccc(NC(=O)C4CCCC4)cc3)n2)[nH]n1" ; what pKi value has been reported? 9.37

Suppose we examine the compound "Cc1cc(Nc2cc(N3CC(F)(C4CC4)C3)nc(Sc3ccc(NC(=O)CCC(F)(F)F)cc3)n2)[nH]n1" ; what pKi value has been reported? 9.21

Suppose we examine the compound "Cc1cc(Nc2cc(N3CC(F)(C4CC4)C3)nc(Sc3ccc(NC(=O)CC(F)(F)F)cc3)n2)[nH]n1" ; what pKi value has been reported? 9.46

Suppose we examine the compound Cc1cc(Nc2cc(N3CC(F)(C4CC4)C3)nc(Sc3ccc(NC(=O)C4CC4(F)F)cc3)n2)[nH]n1 (stereo not shown) ; what pKi value has been reported? 9.11

Suppose we examine the compound "CCC(=O)Nc1ccc(Sc2nc(Nc3cc(C)n[nH]3)cc(N3CC(O)(CC)C3)n2)cc1" ; what pKi value has been reported? 8.77

Suppose we examine the compound "CCC(=O)Nc1ccc(Sc2nc(Nc3cc(C)n[nH]3)cc(N3CC(O)(C4CC4)C3)n2)cc1" ; what pKi value has been reported? 9.41

====

Target: Arg (Abl-2) (Homo sapiens, UniProt P42684)
Sequence (P42684 whole entry, species assumed): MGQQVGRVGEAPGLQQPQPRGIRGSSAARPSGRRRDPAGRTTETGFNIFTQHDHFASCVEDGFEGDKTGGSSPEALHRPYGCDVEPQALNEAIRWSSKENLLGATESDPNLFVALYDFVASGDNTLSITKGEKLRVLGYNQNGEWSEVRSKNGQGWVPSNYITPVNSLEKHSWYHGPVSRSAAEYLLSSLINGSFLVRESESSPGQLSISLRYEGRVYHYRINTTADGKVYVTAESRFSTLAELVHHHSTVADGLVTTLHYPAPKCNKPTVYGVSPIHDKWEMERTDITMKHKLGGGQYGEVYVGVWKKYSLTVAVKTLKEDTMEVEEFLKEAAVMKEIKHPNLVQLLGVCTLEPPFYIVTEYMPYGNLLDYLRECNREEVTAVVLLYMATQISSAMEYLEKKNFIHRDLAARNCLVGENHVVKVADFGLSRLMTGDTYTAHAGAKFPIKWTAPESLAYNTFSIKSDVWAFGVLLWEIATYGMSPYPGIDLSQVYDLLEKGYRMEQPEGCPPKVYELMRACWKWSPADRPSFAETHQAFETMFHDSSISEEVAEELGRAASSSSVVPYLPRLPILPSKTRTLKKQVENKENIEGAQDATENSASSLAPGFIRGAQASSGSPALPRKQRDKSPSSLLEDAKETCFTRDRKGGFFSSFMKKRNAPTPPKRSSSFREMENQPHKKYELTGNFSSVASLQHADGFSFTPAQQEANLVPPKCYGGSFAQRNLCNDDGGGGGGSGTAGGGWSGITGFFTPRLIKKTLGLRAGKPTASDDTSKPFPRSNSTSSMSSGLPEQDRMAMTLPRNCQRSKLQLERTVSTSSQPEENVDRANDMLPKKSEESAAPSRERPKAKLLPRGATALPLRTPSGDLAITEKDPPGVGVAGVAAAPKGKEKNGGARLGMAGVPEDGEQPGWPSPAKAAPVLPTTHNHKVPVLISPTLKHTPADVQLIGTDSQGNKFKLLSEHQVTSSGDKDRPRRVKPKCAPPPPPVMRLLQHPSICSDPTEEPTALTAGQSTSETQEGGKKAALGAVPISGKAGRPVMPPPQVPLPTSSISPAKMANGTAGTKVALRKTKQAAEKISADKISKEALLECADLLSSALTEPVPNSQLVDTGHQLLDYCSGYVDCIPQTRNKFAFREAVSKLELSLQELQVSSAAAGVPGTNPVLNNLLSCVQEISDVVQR
Test: Arg (Abl-2) inhibition screen
Assay type: biochemical
Settings: Table 6, introduced as Ki values; ATP at or close to Km
QUANTITY: pIC50
Formally, pIC50 is defined as -log10 of the concentration c, with c in mol/L.

Suppose we examine the compound Cc1cc(Nc2cc(N3CC(F)(C4CC4)C3)nc(Sc3ccc(NC(=O)CC(F)(F)F)cc3)n2)[nH]n1 [Compound I-14] ; what pIC50 value has been reported? 8.48

====

Biological target: FGFR1 (Homo sapiens)
Sequence (P11362 22-822, species assumed): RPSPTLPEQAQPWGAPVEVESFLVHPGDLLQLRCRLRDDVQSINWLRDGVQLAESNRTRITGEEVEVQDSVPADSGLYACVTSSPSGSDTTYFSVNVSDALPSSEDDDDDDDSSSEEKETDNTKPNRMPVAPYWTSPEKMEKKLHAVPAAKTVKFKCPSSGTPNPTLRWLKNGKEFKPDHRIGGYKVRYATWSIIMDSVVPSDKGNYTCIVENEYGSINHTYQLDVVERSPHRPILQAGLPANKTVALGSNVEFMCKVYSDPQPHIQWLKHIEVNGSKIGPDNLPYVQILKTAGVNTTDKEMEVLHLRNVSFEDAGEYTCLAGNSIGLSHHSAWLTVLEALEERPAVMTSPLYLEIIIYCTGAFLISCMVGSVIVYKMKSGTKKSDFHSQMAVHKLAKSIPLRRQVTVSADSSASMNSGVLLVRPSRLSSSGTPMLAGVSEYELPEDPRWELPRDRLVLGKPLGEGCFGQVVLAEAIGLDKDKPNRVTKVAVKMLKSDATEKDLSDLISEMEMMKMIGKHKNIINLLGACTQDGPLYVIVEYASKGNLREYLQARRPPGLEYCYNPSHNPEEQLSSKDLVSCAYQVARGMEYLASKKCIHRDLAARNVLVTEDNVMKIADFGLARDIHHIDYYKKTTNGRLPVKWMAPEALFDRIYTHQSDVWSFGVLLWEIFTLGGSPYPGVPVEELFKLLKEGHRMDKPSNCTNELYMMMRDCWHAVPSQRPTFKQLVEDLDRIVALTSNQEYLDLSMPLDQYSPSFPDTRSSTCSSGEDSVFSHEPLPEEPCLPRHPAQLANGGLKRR
Assay: FGFR1 inhibition screen
Format: biochemical
Conditions: Table 5; ATP at or close to Km
QUANTITY: IC50 (nM)
Express the result in nM but write the number alone.

Test system FGFR1 (Homo sapiens); read-out IC50; what value for "Cc1cc(Nc2cc(N3CC(F)(C4CC4)C3)nc(Sc3ccc(NC(=O)CC4CC4)cc3)n2)[nH]n1" ? 35

Test system FGFR1 (Homo sapiens); read-out IC50; what value for "Cc1cc(Nc2cc(N3CC(F)(C4CC4)C3)nc(Sc3ccc(NC(=O)CC(F)(F)F)cc3)n2)[nH]n1" ? 121

Test system FGFR1 (Homo sapiens); read-out IC50; what value for "Cc1cc(Nc2cc(N3CC(F)(C4CC4)C3)nc(Sc3ccc(NC(=O)CCC(F)(F)F)cc3)n2)[nH]n1" ? 88

Test system FGFR1 (Homo sapiens); read-out IC50; what value for "Cc1cc(Nc2cc(N3CC(F)(C4CC4)C3)nc(Sc3ccc(NC(=O)C4CC4)cc3F)n2)n[nH]1" ? 22

====

Tested on: Colo205 cells
Experiment: Colo205 cell proliferation, 3H thymidine incorporation
Type: cell-based
Settings: Homo sapiens, COLO 205, read-out: Colo205 inh 3H-Thy incorporation after 96 hours IC50 (uM)
Lab note - cut at 0.03 µM for IC50: class 1 if strictly below, class 0 if not.

IC50 strictly < 0.03 µM for this molecule? "CCC(=O)Nc1ccc(Sc2nc(Nc3cc(C)n[nH]3)cc(N3CC(O)(CC(C)(C)C)C3)n2)cc1" class 0

IC50 strictly < 0.03 µM for this molecule? "CCC(=O)Nc1ccc(Sc2nc(Nc3cc(C)n[nH]3)cc(N3CC(O)(C(C)C)C3)n2)cc1" class 0

IC50 strictly < 0.03 µM for this molecule? "Cc1cc(Nc2cc(N3CC(F)(C4CC4)C3)nc(Sc3ccc(NC(=O)C4CC4)cc3)n2)n[nH]1" class 0

IC50 strictly < 0.03 µM for this molecule? "Cc1cc(Nc2cc(N3CC(O)(C4CC4)C3)nc(Sc3ccc(NC(=O)C4CC4)cc3F)n2)[nH]n1" class 1

IC50 strictly < 0.03 µM for this molecule? "Cc1cc(Nc2cc(N3CC(F)(C4CC4)C3)nc(Sc3ccc(NC(=O)CC(F)(F)F)cc3)n2)[nH]n1" class 1

IC50 strictly < 0.03 µM for this molecule? CCC(=O)Nc1ccc(Sc2nc(Nc3cc(C)n[nH]3)cc(N3CC(O)(C(C)CC)C3)n2)cc1 (stereo not shown) class 1

IC50 strictly < 0.03 µM for this molecule? "CCC(=O)Nc1ccc(Sc2nc(Nc3cc(C)n[nH]3)cc(N3CC(O)(C4CCCC4)C3)n2)cc1" class 1

IC50 strictly < 0.03 µM for this molecule? "Cc1cc(Nc2cc(N3CC(O)(C4CC4)C3)nc(Sc3ccc(NC(=O)C4CC4)cc3)n2)n[nH]1" class 0

IC50 strictly < 0.03 µM for this molecule? "CCC(=O)Nc1ccc(Sc2nc(Nc3cc(C)n[nH]3)cc(N3CC(O)(C4CC4)C3)n2)cc1" class 1

IC50 strictly < 0.03 µM for this molecule? "Cc1cc(Nc2cc(N3CC(O)(C4CC4)C3)nc(Sc3ccc(NC(=O)C4CCCC4)cc3)n2)[nH]n1" class 1

IC50 strictly < 0.03 µM for this molecule? "Cc1cc(Nc2cc(N3CC(F)(C4CC4)C3)nc(Sc3ccc(NC(=O)CCC(F)(F)F)cc3)n2)[nH]n1" class 1

IC50 strictly < 0.03 µM for this molecule? "O=C(Nc1ccc(Sc2nc(Nc3cc(C4CC4)[nH]n3)cc(N3CC(O)(C4CC4)C3)n2)cc1)C1CC1" class 0

IC50 strictly < 0.03 µM for this molecule? "CCC(=O)Nc1ccc(Sc2nc(Nc3cc(C4CC4)[nH]n3)cc(N3CC(O)(C4CC4)C3)n2)cc1" class 1

====

Target: FLT-3 (Homo sapiens, UniProt P36888)
Sequence (P36888 27-993, species assumed): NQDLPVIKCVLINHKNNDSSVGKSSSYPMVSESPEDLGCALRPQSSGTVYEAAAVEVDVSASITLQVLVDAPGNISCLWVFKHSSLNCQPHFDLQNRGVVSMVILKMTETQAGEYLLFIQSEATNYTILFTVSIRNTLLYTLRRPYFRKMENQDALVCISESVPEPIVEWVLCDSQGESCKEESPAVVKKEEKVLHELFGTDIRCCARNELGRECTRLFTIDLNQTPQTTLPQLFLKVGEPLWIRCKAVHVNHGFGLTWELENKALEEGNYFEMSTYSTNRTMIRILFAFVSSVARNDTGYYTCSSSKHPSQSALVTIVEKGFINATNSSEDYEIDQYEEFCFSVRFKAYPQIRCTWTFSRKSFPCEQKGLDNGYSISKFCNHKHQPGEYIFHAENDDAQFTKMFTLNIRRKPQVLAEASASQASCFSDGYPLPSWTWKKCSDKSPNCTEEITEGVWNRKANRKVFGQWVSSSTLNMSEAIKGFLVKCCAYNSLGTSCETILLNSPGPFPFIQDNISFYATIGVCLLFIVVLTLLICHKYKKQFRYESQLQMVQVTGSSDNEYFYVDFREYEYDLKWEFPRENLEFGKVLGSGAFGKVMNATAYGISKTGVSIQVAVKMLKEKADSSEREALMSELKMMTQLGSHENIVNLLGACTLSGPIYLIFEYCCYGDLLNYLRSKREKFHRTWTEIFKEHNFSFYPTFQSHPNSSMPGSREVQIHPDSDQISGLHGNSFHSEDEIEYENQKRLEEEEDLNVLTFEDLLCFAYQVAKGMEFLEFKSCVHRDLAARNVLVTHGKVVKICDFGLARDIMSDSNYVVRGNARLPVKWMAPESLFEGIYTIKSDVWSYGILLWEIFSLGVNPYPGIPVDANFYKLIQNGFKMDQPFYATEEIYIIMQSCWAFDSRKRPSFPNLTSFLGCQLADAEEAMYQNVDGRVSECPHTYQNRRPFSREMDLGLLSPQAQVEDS
QUANTITY: pKi
Formally, pKi is defined as -log10 of the concentration c, with c in mol/L.

Suppose we examine the compound Cc1cc(Nc2cc(N3CC(O)(C4CC4)C3)nc(Sc3ccc(NC(=O)C4CCCC4)cc3)n2)[nH]n1 [Compound I-9] ; what pKi value has been reported? 6.96

Suppose we examine the compound Cc1cc(Nc2cc(N3CC(F)(C4CC4)C3)nc(Sc3ccc(NC(=O)CC(F)(F)F)nc3)n2)[nH]n1 [Compound I-21] ; what pKi value has been reported? 6.92

Suppose we examine the compound Cc1cc(Nc2cc(N3CC(F)(C4CC4)C3)nc(Sc3ccc(NC(=O)CC4CC4)cc3)n2)[nH]n1 [Compound I-19] ; what pKi value has been reported? 6.85

Suppose we examine the compound CCC(=O)Nc1ccc(Sc2nc(Nc3cc(C)n[nH]3)cc(N3CC(O)(C4CC4)C3)n2)cc1 [Compound I-2] ; what pKi value has been reported? 7.44

Suppose we examine the compound CCC(=O)Nc1ccc(Sc2nc(Nc3cc(C)n[nH]3)cc(N3CC(O)(C(C)C)C3)n2)cc1 [Compound I-5] ; what pKi value has been reported? 7.68

Suppose we examine the compound CCC(=O)Nc1ccc(Sc2nc(Nc3cc(C)n[nH]3)cc(N3CC(O)(C(C)CC)C3)n2)cc1 (stereo not shown) [Compound I-6] ; what pKi value has been reported? 7.32

Suppose we examine the compound O=C(Nc1ccc(Sc2nc(Nc3cc(C4CC4)[nH]n3)cc(N3CC(O)(C4CC4)C3)n2)cc1)C1CC1 [Compound I-10] ; what pKi value has been reported? 8.60

Suppose we examine the compound Cc1cc(Nc2cc(N3CC(F)(C4CC4)C3)nc(Sc3ccc(NC(=O)C4CC4)cc3F)n2)n[nH]1 [Compound I-18] ; what pKi value has been reported? 6.80

Suppose we examine the compound CCC(=O)Nc1ccc(Sc2nc(Nc3cc(C)n[nH]3)cc(N3CC(O)(C4CCCC4)C3)n2)cc1 [Compound I-3] ; what pKi value has been reported? 7.59

Suppose we examine the compound Cc1cc(Nc2cc(N3CC(O)(C4CC4)C3)nc(Sc3ccc(NC(=O)C4CC4(F)F)cc3)n2)[nH]n1 (stereo not shown) [Compound I-12] ; what pKi value has been reported? 7.82

Suppose we examine the compound Cc1cc(Nc2cc(N3CC(O)(C4CC4)C3)nc(Sc3ccc(NC(=O)C4CC4)cc3F)n2)[nH]n1 [Compound I-11] ; what pKi value has been reported? 7.70

Suppose we examine the compound Cc1cc(Nc2cc(N3CC(F)(C4CC4)C3)nc(Sc3ccc(NC(=O)C4CC4)cc3)n2)n[nH]1 [Compound I-13] ; what pKi value has been reported? 7.37

Suppose we examine the compound Cc1cc(Nc2cc(N3CC(F)(C4CC4)C3)nc(Sc3ccc(NC(=O)C4CC4(F)F)cc3)n2)[nH]n1 (stereo not shown) [Compound I-20] ; what pKi value has been reported? 7.14
